The following molecules are listed with their measured Emax values.
Biological target: human m4 receptors (Homo sapiens, UniProt P08173)
Construct: expressed in transfected cells; host or cells: CHO K1
Sequence (P08173 whole entry): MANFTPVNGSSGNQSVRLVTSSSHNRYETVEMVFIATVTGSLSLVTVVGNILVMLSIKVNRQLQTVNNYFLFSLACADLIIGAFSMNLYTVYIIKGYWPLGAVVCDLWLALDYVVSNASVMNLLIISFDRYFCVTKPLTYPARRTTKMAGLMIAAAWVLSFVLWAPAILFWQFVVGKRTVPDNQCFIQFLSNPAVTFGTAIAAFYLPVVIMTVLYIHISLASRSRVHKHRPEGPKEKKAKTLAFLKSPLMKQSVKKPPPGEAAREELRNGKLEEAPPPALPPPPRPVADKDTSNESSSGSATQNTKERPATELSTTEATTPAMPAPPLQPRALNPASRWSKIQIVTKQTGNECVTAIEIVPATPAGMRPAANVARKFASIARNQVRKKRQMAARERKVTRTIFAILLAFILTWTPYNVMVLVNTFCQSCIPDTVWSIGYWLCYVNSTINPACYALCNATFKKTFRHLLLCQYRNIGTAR
Assay: M4 assay: cyclic AMP accumulation/production in pertussis toxin-treated CHO m4 cells (% maximum stimulation compared to oxotremorine-M)
Assay type: cell-based
Conditions: read-out: % Maximum Stimulation Compared to Oxotremorine-M
Description: II. M4 muscarinic receptor […] assay: Cyclic AMP Accumulation in Pertussis Toxin-Treated CHO m4 Cells. CHO K1 cells transfected with human m4 receptors were grown to near confluency in T-150 flasks using Dulbecco's Modified Eagle Medium (DMEM) containing 10% fetal bovine serum. Cells were detached with 0.05% trypsin, 0.53 mM EDTA, and were suspended in medium containing 100 ng/ml pertussis toxin. Cells were plated at 30,000 cells per well into 96 well plates. […]
Hi! Could you send only the number? It should be in %, unit omitted.

For orientation, consider the following solved cases.
molecule	unit-abbreviation	Emax
O=C(N[C@H]1c2cc(N=CN3CCCC3)ccc2C[C@@H]1O)c1ccc(C(F)(F)F)cc1 (relative stereo)	%	61
COc1cccc(C(=O)N[C@H]2c3cc(N=CN4CCCC4)ccc3C[C@@H]2O)c1 (relative stereo)	%	45

[ask] Sample CCCCOc1ccc(C(=O)N[C@@H]2c3cc(N=CN(C)C)ccc3C[C@H]2O)cc1 (relative stereo) — what was its Emax?
[reply] 22

====

Target: human m4 receptors (Homo sapiens, UniProt P08173)
Construct: expressed in transfected cells; host or cells: CHO K1
Assay: M4 assay: cyclic AMP accumulation/production in pertussis toxin-treated CHO m4 cells (% maximum stimulation compared to oxotremorine-M)
Format: cell-based
Settings: read-out: % Maximum Stimulation Compared to Oxotremorine-M
Description: II. M4 muscarinic receptor […] assay: Cyclic AMP Accumulation in Pertussis Toxin-Treated CHO m4 Cells. CHO K1 cells transfected with human m4 receptors were grown to near confluency in T-150 flasks using Dulbecco's Modified Eagle Medium (DMEM) containing 10% fetal bovine serum. Cells were detached with 0.05% trypsin, 0.53 mM EDTA, and were suspended in medium containing 100 ng/ml pertussis toxin. Cells were plated at 30,000 cells per well into 96 well plates. […]
Reported Emax values for the following compounds.
State just the number; it will be interpreted in %.

Check out these entries, answers already filled in.
compound	unit-abbreviation	Emax
CN(C)C=Nc1ccc2c(c1)[C@@H](NC(=O)c1ccc(C(F)(F)F)cc1)[C@H](O)C2 (relative stereo)	%	6
CN(C)C=Nc1ccc2c(c1)[C@@H](NC(=O)c1cccc3ccccc13)[C@H](O)C2 (relative stereo)	%	95
O=C(N[C@@H]1c2cc(N=CN3CCCC3)ccc2C[C@H]1O)c1c(Cl)cccc1Cl (relative stereo)	%	154
CN(C)C=Nc1ccc2c(c1)[C@@H](NC(=O)C(F)(F)F)[C@H](O)C2 (relative stereo)	%	0
O=C(N[C@@H]1c2cc(N=CN3CCCCC3)ccc2C[C@H]1O)c1cccc(Cl)c1Cl (relative stereo)	%	52
O=C(N[C@H]1c2cc(N=CN3CCCC3)ccc2C[C@@H]1O)c1ccc([N+](=O)[O-])cc1Cl (relative stereo)	%	69
CN(C)C=Nc1ccc2c(c1)[C@@H](NC(=O)c1cccc(C#N)c1)[C@H](O)C2 (relative stereo)	%	39
CN(C)C=Nc1ccc2c(c1)[C@@H](NC(=O)c1cc(F)cc(C(F)(F)F)c1)[C@H](O)C2 (relative stereo)	%	52

[ask] // returns reported Emax for input CN(C)C=Nc1ccc2c(c1)[C@@H](NC(=O)c1sccc1Cl)[C@H](O)C2 (relative stereo)
[reply] 0

[ask] I'd like to know its Emax. The compound in question is CCCCc1ccc(C(=O)N[C@@H]2c3cc(N=CN(C)C)ccc3C[C@H]2O)cc1 (relative stereo)
[reply] 18

[ask] Entry CN(C)C=Nc1ccc2c(c1)[C@@H](NC(=O)c1cccnc1Cl)[C@H](O)C2 (relative stereo) : reported Emax = ?
[reply] 11

[ask] Fill blank: measured Emax of the compound O=C(N[C@H]1c2cc(N=CN3CCCC3)ccc2C[C@@H]1O)c1cccc(F)c1F (relative stereo) is ____.
[reply] 22

====

Target: human m4 receptors (Homo sapiens)
Construct: expressed in transfected cells; host or cells: CHO K1
Test: M4 assay: cyclic AMP accumulation/production in pertussis toxin-treated CHO m4 cells (% maximum stimulation compared to oxotremorine-M)
Type: cell-based
Settings: read-out: % Maximum Stimulation Compared to Oxotremorine-M
# note: boundary value 40% maps to False; Emax below it maps to True

[ask] For this compound, is Emax lower than 40%? O=C(N[C@H]1c2cc(N=CN3CCCC3)ccc2C[C@@H]1O)c1ccc2ccccc2c1 (relative stereo) [Compound 17]
[reply] False

[ask] Threshold test, Emax < 40%: CN(C)C=Nc1ccc2c(c1)[C@@H](NC(=O)c1cc3ccccc3s1)[C@H](O)C2 (relative stereo) [Compound 69]
[reply] True

[ask] Is 40% strictly greater than the compound's reported Emax? compound: CN(C)C=Nc1ccc2c(c1)[C@@H](NC(=O)c1cc(Cl)cc(Cl)c1)[C@H](O)C2 (relative stereo) [Compound 58]
[reply] False

[ask] Hello, is Emax of the following compound strictly smaller than 40%? O=C(N[C@H]1c2cc(N=CN3CCCC3)ccc2C[C@@H]1O)c1cccnc1Cl (relative stereo) [Compound 12]
[reply] True

[ask] Please indicate whether the reported Emax of CN(C)C=Nc1ccc2c(c1)C(NS(=O)(=O)c1ccc(Cl)c(Cl)c1)C(O)C2 (stereo not drawn) [Compound 72] is strictly below 40%.
[reply] True

[ask] In the record for N#Cc1ccc(C(=O)N[C@H]2c3cc(N=CN4CCCC4)ccc3C[C@@H]2O)cc1 (relative stereo) [Compound 13] , is Emax less than 40%?
[reply] True

====

Measured Emax values are reported for all entries that follow.
Target: human m4 receptors (Homo sapiens)
Construct: expressed in transfected cells; host or cells: CHO K1
Test: M4 assay: cyclic AMP accumulation/production in pertussis toxin-treated CHO m4 cells (% maximum stimulation compared to oxotremorine-M)
Assay type: cell-based
Conditions: read-out: % Maximum Stimulation Compared to Oxotremorine-M
The reply should be a number in %, with the unit left off.

Check out these entries, answers already filled in.
molecule	readout-kind	unit-abbreviation	measured-number
O=C(N[C@H]1c2cc(N=CN3CCCC3)ccc2C[C@@H]1O)c1cccc2ccccc12 (relative stereo)	Emax	%	76
CN(C)C=Nc1ccc2c(c1)[C@@H](NC(=O)c1ccc3ccccc3c1)[C@H](O)C2 (relative stereo)	Emax	%	13

[ask] Can you look up the measured Emax of O=C(N[C@H]1c2cc(N=CN3CCCC3)ccc2C[C@@H]1O)c1cccs1 (relative stereo) for me?
[reply] 23

[ask] What does the data say about its Emax? Entry: CN(C)C=Nc1ccc2c(c1)[C@@H](NC(=O)c1cc(F)c(F)c(F)c1)[C@H](O)C2 (relative stereo)
[reply] 30

[ask] Please give the measured Emax for this molecule: O=C(N[C@H]1c2cc(N=CN3CCCC3)ccc2C[C@@H]1O)c1cc(Cl)cc(Cl)c1 (relative stereo)
[reply] 100

[ask] Requested field: Emax. Item: CN(C)C=Nc1ccc2c(c1)[C@@H](NC(=O)C1CCCC1)[C@H](O)C2 (relative stereo)
[reply] 27

[ask] Which Emax reading was recorded for the molecule CCc1ccc(C(=O)N[C@@H]2c3cc(N=CN(C)C)ccc3C[C@H]2O)cc1 (relative stereo) ?
[reply] 7

====

Target: human m4 receptors (Homo sapiens)
Construct: expressed in transfected cells; host or cells: CHO K1
Assay: M4 assay: cyclic AMP accumulation/production in pertussis toxin-treated CHO m4 cells (% maximum stimulation compared to oxotremorine-M)
Type: cell-based
Details: read-out: % Maximum Stimulation Compared to Oxotremorine-M
As shown below, each of these compounds has a reported Emax value.
Give the value in % but do not write % after it.

Consider the following illustrative entries.
compound	readout-kind	unit-abbreviation	measured-number
O=C(N[C@@H]1c2cc(N=CN3CCCCC3)ccc2C[C@H]1O)c1cc(Cl)cc(Cl)c1 (relative stereo)	Emax	%	36
CN(C)C=Nc1ccc2c(c1)[C@@H](NC(=O)c1ccc(Cl)nc1)[C@H](O)C2 (relative stereo)	Emax	%	8

[ask] // returns reported Emax for input O=C(N[C@@H]1c2cc(N=CN3CCCC3)ccc2C[C@H]1O)c1cc(F)c(F)c(F)c1F (relative stereo)
[reply] 96

====

Target: human m4 receptors (Homo sapiens)
Construct: expressed in transfected cells; host or cells: CHO K1
Test: M4 assay: cyclic AMP accumulation/production in pertussis toxin-treated CHO m4 cells (% maximum stimulation compared to oxotremorine-M)
Assay type: cell-based
Conditions: read-out: % Maximum Stimulation Compared to Oxotremorine-M
Listed next: entries and their corresponding Emax.
Just the number please, in %, no unit attached.

Consider the worked cases shown below.
compound	assayed-target	unit-abbreviation	Emax
CC(=Nc1ccc2c(c1)[C@@H](NC(=O)c1ccc(Cl)c(Cl)c1)[C@H](O)C2)N(C)C (relative stereo)	human m4 receptors (Homo sapiens)	%	130
O=C(N[C@H]1c2cc(N=CN3CCCC3)ccc2C[C@@H]1O)c1cc(F)c(F)c(F)c1 (relative stereo)	human m4 receptors (Homo sapiens)	%	43

[ask] Param readout= Emax; system= human m4 receptors (Homo sapiens); entry= O=C(N[C@H]1c2cc(N=CN3CCCC3)ccc2C[C@@H]1O)c1cccc(Cl)c1Cl (relative stereo) ; returns value.
[reply] 45

[ask] Identify the measured Emax of Cc1cccc(C(=O)N[C@H]2c3cc(N=CN4CCCC4)ccc3C[C@@H]2O)c1 (relative stereo) for human m4 receptors (Homo sapiens).
[reply] 76

[ask] Report Emax for O=C(N[C@@H]1c2cc(N=CN3CCCCC3)ccc2C[C@H]1O)c1ccc(Cl)c(Cl)c1 (relative stereo) tested on human m4 receptors (Homo sapiens).
[reply] 214

[ask] Record O=C(N[C@H]1c2cc(N=CN3CCCC3)ccc2C[C@@H]1O)c1ccc(F)c(F)c1F (relative stereo) : what is its Emax with human m4 receptors (Homo sapiens)?
[reply] 45
